experiment: Solubility of the compound at pH 6.5; assay type: physicochemical; details: buffer
value.kind: solubility (µM)

[[record]]
molecule = "Cn1ncc2c(NCCc3ccc(C(F)(F)F)cc3)nc(Cl)nc21"
result_value = 150

[[record]]
molecule = "CNc1nc(Cl)nc2c1cnn2C"
result_value = 206

[[record]]
molecule = "Cn1ncc2c(NC3(c4ccc(C(F)(F)F)cc4)CC3)nc(Cl)nc21"
result_value = 156

[[record]]
molecule = "Cn1ncc2c(NCc3ccc(Cl)cc3)nc(Cl)nc21"
result_value = 145

[[record]]
molecule = "Cn1ncc2c(NC3(c4ccc(C(F)(F)F)cc4)CC3)nc(C3CC3)nc21"
result_value = 125

[[record]]
molecule = "Cn1ncc2c(N3CCCCC3c3ccc(C(F)(F)F)cc3)nc(Cl)nc21 (centres undefined)"
result_value = 138

[[record]]
molecule = "Cn1ncc2c(NC(C)(C)c3ccc(C(F)(F)F)cc3)nc(Cl)nc21"
result_value = 183

[[record]]
molecule = "Cn1ncc2c(NCc3ccc(C(F)(F)F)cn3)nc(Cl)nc21"
result_value = 176

[[record]]
molecule = "FC(F)(F)c1ccc(C2(Nc3nc(Cl)nc4[nH]ncc34)CC2)cc1"
result_value = 105

